tested on: INS1; test: beta cell apoptosis inhibitors, cytokine rescue, dose response, luminescence, retest (AID 449756); assay type: functional, cell-based; conditions: Rattus norvegicus;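 also: cell death triggered by IL-1 beta plus TNF-alpha plus IFN-gamma mixture; protective hits raise ATP signal compared with cytokine alone wells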
Activity calls are given as the source filed them. Rule as the data show it: actives have a measured AC50 and inactives only a lower limit.
MEASUREMENT_TYPE: AC50

For `COc1ccc(C(=O)Nc2ccccc2C(=O)N/N=C/c2ccccn2)cc1OC` , what is its reported AC50?
2.45 µM (active)

For `CC(=O)/C=C/n1c(=S)oc2ccccc21` , what is its reported AC50?
8.12 µM (active)

For `c1ccc(CNc2c(-c3cccc(SC4CCCCC4)c3)nc3ccccn23)cc1` , what is its reported AC50?
5.06 µM (active)

For `c1ccc(-c2nnc(CSc3ccc4c(c3)OCCO4)o2)cc1` , what is its reported AC50?
> 260 µM (inactive)

For `COC(=O)c1nc(-c2ccc3c(n2)C(=O)C(=N)C(OC)=C3O)c(N)c(-c2ccc(OC)c(OC)c2O)c1C` , what is its reported AC50?
1.56 µM (active)
